target: Histone deacetylase (Homo sapiens) (UniProt Q13547+O15379+Q9UBN7+Q92769+Q9UQL6+Q8WUI4+Q9BY41+Q96DB2+P56524+Q9UKV0+Q969S8); test: Inhibition of HDAC activity in human NB4 cells assessed as maximum acetylation of histone H4 at EC50 concentration after 24 hrs by Western blot analysis relative to control; type: cell-based; conditions: NB-4
Ratio overview
Quantity measured: Ratio

# Smiles string, Quantity measured, Observed
rows = [
    ("COc1ccc2c(c1)N(CCCCCC(=O)NO)C(=O)c1ccccc1N2", "Ratio", 244),
    ("O=C(CCCCCN1C(=O)c2ccccc2Oc2ccccc21)NO", "Ratio", 54),
    ("COc1ccc2c(c1)N(CCCCCC(=O)NO)C(=O)c1ccccc1S2(=O)=O", "Ratio", 1460),
]

====

Ratio overview
tested on: NB-4; assay: Potentiation of all-trans retinoic acid-induced human NB4 cells differentiation after 72 hrs by NBT-reductase activity assay relative HDAC inhibitor alone; assay type: functional
Quantity measured: Ratio

# Smiles string, Observed
rows = [
    ("COc1ccc2c(c1)N(CCCCCC(=O)NO)C(=O)c1ccccc1S2(=O)=O", 79),
    ("COc1ccc2c(c1)N(CCCCCC(=O)NO)C(=O)c1ccccc1O2", 7),
    ("O=C(CCCCCN1C(=O)c2ccccc2Sc2ccc(Cl)cc21)NO", 31),
    ("O=C(CCCCCN1C(=O)c2ccccc2Nc2ccc(Cl)cc21)NO", 1),
    ("O=C(CCCCCN1C(=O)c2ccccc2Oc2ccc(Cl)cc21)NO", 1),
]
